- measured_target: PCSK9 (Homo sapiens, UniProt Q8NBP7)
- Sequence (Q8NBP7 31-692): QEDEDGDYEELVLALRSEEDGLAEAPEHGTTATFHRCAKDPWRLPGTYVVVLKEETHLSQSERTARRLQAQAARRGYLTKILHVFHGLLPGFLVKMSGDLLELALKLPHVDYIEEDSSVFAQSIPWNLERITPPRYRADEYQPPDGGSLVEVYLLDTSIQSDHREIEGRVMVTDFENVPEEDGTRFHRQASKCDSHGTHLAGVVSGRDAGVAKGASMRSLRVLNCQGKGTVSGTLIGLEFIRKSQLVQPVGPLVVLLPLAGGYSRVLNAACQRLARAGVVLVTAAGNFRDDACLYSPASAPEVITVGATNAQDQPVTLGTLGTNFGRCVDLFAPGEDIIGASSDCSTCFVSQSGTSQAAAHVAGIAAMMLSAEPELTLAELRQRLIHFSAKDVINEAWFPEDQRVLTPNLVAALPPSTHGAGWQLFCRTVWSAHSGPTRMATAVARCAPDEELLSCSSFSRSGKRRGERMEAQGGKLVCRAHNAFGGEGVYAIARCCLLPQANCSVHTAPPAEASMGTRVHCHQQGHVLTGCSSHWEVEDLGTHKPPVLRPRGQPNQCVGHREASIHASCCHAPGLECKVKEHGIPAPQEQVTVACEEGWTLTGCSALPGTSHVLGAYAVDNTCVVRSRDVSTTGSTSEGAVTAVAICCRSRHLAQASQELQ
- test_method_notes: Assay 2 - Biophysical human PCSK9 assay (SPR, Biacore)
- Type: binding
- Set-up: biotinylated human PCSK9 (31-692)-Avi-His6
- applied_conditions: geometric mean; SPR single-cycle kinetics, 30° C.; read-out: Assay 2 (PCSK9 BIAcore DBA CR) GMean Kd
quantity_name: Kd (nM)

> print(dat)
                                   molecule  unit.tag  result.number
1  O=c1c(Cl)cccn1-c1ccc(N[C@H]2CC[C@H](Nc3nc4cccnc4s3)C2)nc1 [Example 24]        nM            0.1
2  O=c1ccccn1-c1ccc(N[C@H]2CC[C@H](Nc3nc4c(Br)ccnc4[nH]3)C2)nc1 [Example 73]        nM              5
3  O=c1ccccn1-c1ccc(N[C@H]2CC[C@H](Nc3nc4cccnc4[nH]3)C2)nc1 [Example 46]        nM              6
4  O=c1ccccn1-c1ccc(N[C@H]2CC[C@H](Nc3nc4ccc(CO)cc4o3)C2)nc1 [Example 4]        nM             49

----------
- measured_target: GSK3b (Glycogen synthase kinase-3 beta) (Homo sapiens)
- Sequence (P49841 whole entry): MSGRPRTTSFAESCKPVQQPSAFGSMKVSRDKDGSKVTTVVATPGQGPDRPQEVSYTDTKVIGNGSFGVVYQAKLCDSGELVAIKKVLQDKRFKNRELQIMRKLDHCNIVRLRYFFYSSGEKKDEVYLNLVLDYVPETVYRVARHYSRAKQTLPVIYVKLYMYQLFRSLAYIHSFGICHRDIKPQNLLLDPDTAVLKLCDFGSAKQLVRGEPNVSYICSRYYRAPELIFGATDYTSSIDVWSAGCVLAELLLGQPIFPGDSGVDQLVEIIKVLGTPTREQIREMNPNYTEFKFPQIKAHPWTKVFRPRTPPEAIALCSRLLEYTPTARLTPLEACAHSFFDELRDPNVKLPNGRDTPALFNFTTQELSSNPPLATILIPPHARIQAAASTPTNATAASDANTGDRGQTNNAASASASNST
- test_method_notes: Assay 6 - GSK3b assay (ThermoFisher, FRET Z-Lyte)
- Type: biochemical
- applied_conditions: geometric mean; ATP Conc: 10.000 μM; read-out: Assay 6 (GSK3B FRET-Z-Lyte CR) GMean IC50 (μM) ATP Conc: 10.000
quantity_name: IC50

> print(dat)
                                    compound                           measured.target  quantity.name    result
 1  O=c1ccccn1-c1ccc(N[C@H]2CC[C@H](Nc3nc4nccnc4[nH]3)C2)nc1 [Example 80]  GSK3b (Glycogen synthase kinase-3 beta) (Homo sapiens)           IC50  0.305 µM
 2  O=c1c(Cl)cccn1-c1ccc(N[C@H]2CC[C@H](Nc3nc4cccnc4s3)C2)nc1 [Example 24]  GSK3b (Glycogen synthase kinase-3 beta) (Homo sapiens)           IC50   > 10 µM
 3  O=c1ccccn1-c1ccc(N[C@H]2CC[C@H](Nc3nc4c(Br)ccnc4[nH]3)C2)nc1 [Example 73]  GSK3b (Glycogen synthase kinase-3 beta) (Homo sapiens)           IC50  0.192 µM
 4  O=c1ccccn1-c1ccc(N[C@H]2CC[C@H](Nc3nc4cc(CO)cnc4[nH]3)C2)nc1 [Example 61]  GSK3b (Glycogen synthase kinase-3 beta) (Homo sapiens)           IC50   > 10 µM
 5  O=c1ccccn1-c1ccc(N[C@H]2CC[C@H](Nc3nc4cc(Br)cnc4s3)C2)nc1 [Compound 87]  GSK3b (Glycogen synthase kinase-3 beta) (Homo sapiens)           IC50   6.74 µM
 6  Fc1cccnc1-c1ccc(N[C@H]2CC[C@H](Nc3nc4cccnc4[nH]3)C2)nc1 [Example 30]  GSK3b (Glycogen synthase kinase-3 beta) (Homo sapiens)           IC50   > 10 µM
 7  COc1ccccc1-c1ccc(N[C@H]2CC[C@H](Nc3nc4cccnc4[nH]3)C2)nc1 [Example 66]  GSK3b (Glycogen synthase kinase-3 beta) (Homo sapiens)           IC50   > 10 µM
 8  O=c1ccccn1-c1ccc(N[C@H]2CC[C@H](Nc3nc4cc(CO)ccc4s3)C2)nc1 [Example 84]  GSK3b (Glycogen synthase kinase-3 beta) (Homo sapiens)           IC50   > 10 µM
 9  O=c1ccc(Cl)cn1-c1ccc(N[C@H]2CC[C@H](Nc3nc4cccnc4o3)C2)nc1 [Example 13]  GSK3b (Glycogen synthase kinase-3 beta) (Homo sapiens)           IC50   > 10 µM
10  O=c1ccccn1-c1ccc(N[C@H]2CC[C@H](Nc3nc4cc(F)cnc4[nH]3)C2)nc1 [Example 48]  GSK3b (Glycogen synthase kinase-3 beta) (Homo sapiens)           IC50  0.805 µM
11  O=c1ccccn1-c1ccc(N[C@H]2CC[C@H](Nc3nc4cccnc4o3)C2)nc1 [Example 11]  GSK3b (Glycogen synthase kinase-3 beta) (Homo sapiens)           IC50   > 10 µM
12  O=c1cccnn1-c1ccc(N[C@H]2CC[C@H](Nc3nc4cccnc4[nH]3)C2)nc1 [Example 28]  GSK3b (Glycogen synthase kinase-3 beta) (Homo sapiens)           IC50   > 10 µM
13  O=c1ccc2cccnc2n1-c1ccc(N[C@H]2CC[C@H](Nc3nc4cccnc4[nH]3)C2)nc1 [Example 34]  GSK3b (Glycogen synthase kinase-3 beta) (Homo sapiens)           IC50   > 10 µM
14  COc1cccc(F)c1-c1ccc(N[C@H]2CC[C@H](Nc3nc4cccnc4[nH]3)C2)nc1 [Example 67]  GSK3b (Glycogen synthase kinase-3 beta) (Homo sapiens)           IC50   > 10 µM
15  Cc1ncc(-c2ccc(=O)n(-c3ccc(N[C@H]4CC[C@H](Nc5nc6cc(Br)cnc6[nH]5)C4)nc3)c2)cn1 [Example 52]  GSK3b (Glycogen synthase kinase-3 beta) (Homo sapiens)           IC50  0.178 µM
16  COc1ccc(=O)n(-c2ccc(N[C@H]3CC[C@H](Nc4nc5cccnc5[nH]4)C3)nc2)c1 [Example 72]  GSK3b (Glycogen synthase kinase-3 beta) (Homo sapiens)           IC50   0.01 µM

----------
- measured_target: PCSK9 (Homo sapiens, UniProt Q8NBP7, G670E/V474I)
- test_method_notes: cell-based
- Sequence (Q8NBP7 153-692 V474I/G670E, one chain of several): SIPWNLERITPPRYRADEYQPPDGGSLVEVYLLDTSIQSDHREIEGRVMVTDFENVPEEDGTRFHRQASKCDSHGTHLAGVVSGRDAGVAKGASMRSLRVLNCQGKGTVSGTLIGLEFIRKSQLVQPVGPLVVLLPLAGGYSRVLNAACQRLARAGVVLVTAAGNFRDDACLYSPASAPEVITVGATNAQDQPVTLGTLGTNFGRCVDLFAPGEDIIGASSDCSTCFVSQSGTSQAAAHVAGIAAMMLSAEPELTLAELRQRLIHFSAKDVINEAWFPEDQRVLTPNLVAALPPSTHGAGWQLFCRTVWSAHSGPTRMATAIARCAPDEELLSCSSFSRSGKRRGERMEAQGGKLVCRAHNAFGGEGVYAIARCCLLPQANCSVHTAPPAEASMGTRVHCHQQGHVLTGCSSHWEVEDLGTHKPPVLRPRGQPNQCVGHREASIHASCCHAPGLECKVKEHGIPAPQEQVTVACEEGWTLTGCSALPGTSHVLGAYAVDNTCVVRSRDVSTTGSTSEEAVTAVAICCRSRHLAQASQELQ
quantity_name: log10 IC50 (log10 of the value in nM)

> print(dat)
                             compound.string  quantity.name  result.number
 1  O=c1ccc2cccnc2n1-c1ccc(N[C@H]2CC[C@H](Nc3nc4cccnc4[nH]3)C2)nc1     log10 IC50           1.99
 2  Cc1cccn(-c2ccc(N[C@H]3CC[C@H](Nc4nc5cccnc5s4)C3)nc2)c1=O     log10 IC50           1.73
 3  Cc1cccn(-c2ccc(N[C@H]3CC[C@H](Nc4nc5cccnc5[nH]4)C3)nc2)c1=O     log10 IC50           1.95
 4  O=c1ccccn1-c1ccc(N[C@H]2CC[C@H](Nc3nc4cc(Cl)cnc4[nH]3)C2)nc1     log10 IC50           1.81
 5  N#Cc1cccn(-c2ccc(N[C@H]3CC[C@H](Nc4nc5cccnc5o4)C3)nc2)c1=O     log10 IC50           1.88
 6  O=c1ccccn1-c1ccc(N[C@H]2CC[C@H](Nc3nc4c(Br)ccnc4[nH]3)C2)nc1     log10 IC50           2.45
 7  N#Cc1ccc2nc(N[C@H]3CC[C@H](Nc4ccc(-n5ccccc5=O)cn4)C3)oc2c1     log10 IC50           3.24
 8  O=c1ccccn1-c1ccc(N[C@H]2CC[C@H](Nc3nc4cc(Br)cnc4[nH]3)C2)nc1     log10 IC50           1.61
 9  O=c1ccc(Cl)cn1-c1ccc(N[C@H]2CC[C@H](Nc3nc4cccnc4[nH]3)C2)nc1     log10 IC50           2.09
10  CCc1cnc2[nH]c(N[C@H]3CC[C@H](Nc4ccc(-n5ccccc5=O)cn4)C3)nc2c1     log10 IC50           2.60
11  COc1cccn(-c2ccc(N[C@H]3CC[C@H](Nc4nc5cccnc5[nH]4)C3)nc2)c1=O     log10 IC50           2.27
12  O=c1[nH]c2ccccc2n1-c1ccc(N[C@H]2CC[C@H](Nc3nc4cccnc4[nH]3)C2)nc1     log10 IC50           2.03
13  O=c1ccc(Cl)cn1-c1ccc(N[C@H]2CC[C@H](Nc3nc4cccnc4o3)C2)nc1     log10 IC50           3.20
14  COc1ccc(=O)n(-c2ccc(N[C@H]3CC[C@H](Nc4nc5cccnc5[nH]4)C3)nc2)c1     log10 IC50           2.21
15  O=C(O)c1ccc(=O)n(-c2ccc(N[C@H]3CC[C@H](Nc4nc5cccnc5[nH]4)C3)nc2)c1     log10 IC50           1.91
16  Cn1c(=O)n(-c2ccc(N[C@H]3CC[C@H](Nc4nc5cccnc5o4)C3)nc2)c2ncccc21     log10 IC50           1.72

----------
The following compounds are listed with their measured pIC50 values.
- measured_target: PCSK9 (Homo sapiens, UniProt Q8NBP7, G670E/V474I)
- test_method_notes: biochemical
- Sequence (Q8NBP7 with tags, fused parts or gaps V474I/G670E): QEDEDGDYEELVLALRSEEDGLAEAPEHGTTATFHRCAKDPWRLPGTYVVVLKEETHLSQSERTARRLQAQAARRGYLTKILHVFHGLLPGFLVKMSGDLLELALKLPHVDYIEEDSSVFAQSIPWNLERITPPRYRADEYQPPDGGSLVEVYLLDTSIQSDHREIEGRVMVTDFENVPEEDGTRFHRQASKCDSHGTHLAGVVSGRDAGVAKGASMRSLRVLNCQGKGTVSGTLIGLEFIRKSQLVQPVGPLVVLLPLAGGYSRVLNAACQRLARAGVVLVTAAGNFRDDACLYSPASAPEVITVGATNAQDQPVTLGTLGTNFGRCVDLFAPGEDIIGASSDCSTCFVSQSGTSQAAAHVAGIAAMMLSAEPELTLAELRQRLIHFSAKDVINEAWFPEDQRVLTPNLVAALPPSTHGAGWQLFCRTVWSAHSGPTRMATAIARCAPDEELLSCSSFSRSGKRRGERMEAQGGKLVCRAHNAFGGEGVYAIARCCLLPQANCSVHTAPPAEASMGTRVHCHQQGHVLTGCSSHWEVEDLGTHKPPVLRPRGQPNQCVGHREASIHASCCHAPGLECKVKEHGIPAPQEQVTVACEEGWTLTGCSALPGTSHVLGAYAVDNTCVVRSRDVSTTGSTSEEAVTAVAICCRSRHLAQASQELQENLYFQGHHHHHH
pIC50: −log10 of the molar value.
quantity_name: pIC50

> print(dat)
                            compound.string                           measured.target  result.number
1  O=c1ccccn1-c1ccc(N[C@H]2CC[C@H](Nc3nc4cc(CO)cnc4s3)C2)nc1  PCSK9 (Homo sapiens, UniProt Q8NBP7, G670E/V474I)           8.00
2  O=c1ccccn1-c1ccc(N[C@H]2CC[C@H](Nc3nc4c(Cl)c(Cl)cnc4[nH]3)C2)nc1  PCSK9 (Homo sapiens, UniProt Q8NBP7, G670E/V474I)           7.98
3  O=c1ccccn1-c1ccc(N[C@H]2CC[C@H](Nc3nc4ccc(OC(F)F)cc4o3)C2)nc1  PCSK9 (Homo sapiens, UniProt Q8NBP7, G670E/V474I)           7.84
4  O=c1ccccn1-c1ccc(N[C@H]2CC[C@H](Nc3nc4cc(CO)cnc4[nH]3)C2)nc1  PCSK9 (Homo sapiens, UniProt Q8NBP7, G670E/V474I)           8.05
5  N#Cc1ccc(=O)n(-c2ccc(N[C@H]3CC[C@H](Nc4nc5cccnc5s4)C3)nc2)c1  PCSK9 (Homo sapiens, UniProt Q8NBP7, G670E/V474I)           8.17
6  Cc1ccc2nc(N[C@H]3CC[C@H](Nc4ccc(-n5ccccc5=O)cn4)C3)oc2c1  PCSK9 (Homo sapiens, UniProt Q8NBP7, G670E/V474I)           7.93
